target: Myeloperoxidase (MPO) (Homo sapiens, UniProt P05164)
Sequence (P05164 165-273): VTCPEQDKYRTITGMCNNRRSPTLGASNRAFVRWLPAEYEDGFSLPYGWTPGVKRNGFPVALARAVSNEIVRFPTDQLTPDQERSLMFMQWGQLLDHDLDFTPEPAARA
Sequence (P05164 279-745): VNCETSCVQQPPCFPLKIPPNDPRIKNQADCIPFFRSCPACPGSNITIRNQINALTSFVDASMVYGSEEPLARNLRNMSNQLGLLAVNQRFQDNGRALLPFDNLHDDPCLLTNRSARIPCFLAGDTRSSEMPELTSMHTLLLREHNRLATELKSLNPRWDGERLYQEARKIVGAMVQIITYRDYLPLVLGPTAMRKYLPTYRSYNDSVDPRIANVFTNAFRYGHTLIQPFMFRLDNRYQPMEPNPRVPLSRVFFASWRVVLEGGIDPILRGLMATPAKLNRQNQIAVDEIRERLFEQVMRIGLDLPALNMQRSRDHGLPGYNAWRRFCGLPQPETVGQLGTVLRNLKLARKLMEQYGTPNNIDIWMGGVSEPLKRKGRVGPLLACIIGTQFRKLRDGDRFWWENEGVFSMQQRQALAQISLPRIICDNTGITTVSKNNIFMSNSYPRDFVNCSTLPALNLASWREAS
endpointName: pIC50
// pIC50 is dimensionless: -log10 of concentration (M)

Before answering, review these 2 worked examples.
{"molecule": "CCOc1cccc(/C=C(/N)C(=O)O)c1O [2e]", "measuredNumber": 4.37}
{"molecule": "N/C(=C/c1ccc(O)cc1O)C(=O)O [2f, (E)-(2,4-dihydroxy)-α-aminocinnamic acid]", "measuredNumber": 4.52}

Q: Record lookup: for Myeloperoxidase (MPO) (Homo sapiens, UniProt P05164), what pIC50 belongs to N/C(=C/c1ccccc1O)C(=O)O [2a, (E)-(2-hydroxy)-α-aminocinnamic acid] ?
A: 4.35
